# test: in vivo
# experimentalParameters: female, TgN[SOD1-G93A]1Gur (SOD1-G93A transgenic), mouse, brain (cerebral cortex parenchyma) relative to serum, oral

compound | Kp
CS(=O)(=O)Nc1ccc([N+](=O)[O-])cc1Oc1ccccc1 [nimesulide, 4-nitro-2-phenoxymethanesulfonanilide] | ~0.1

* * *

# test: in vivo
# experimentalParameters: female, mouse, brain (cerebral cortex parenchyma) relative to serum, oral

compound | Kp
CS(=O)(=O)Nc1ccc([N+](=O)[O-])cc1Oc1ccccc1 [nimesulide, 4-nitro-2-phenoxymethanesulfonanilide] | 0.1

These entries and their values trace back to patent US20060041022A1.
